src = PubChem BioAssay (NCI)

tested on: MDA-N; experiment: NCI tumour cell line growth inhibition, 48 h
measurementType: TGI

Reference set (5 entries):
O=C1CCC2(CC1)Cc1ccccc1C2O (configuration not stated) = > 100 µM
CCCCC[C@H](O)[C@H](C)C=C1SCCCS1 = > 100 µM
CC(C)=CCN(N=O)c1ncnc2nc[nH]c12 = > 100 µM
OC(CC(c1ccccc1)c1ccc(Cl)cc1)c1ccc(Cl)cc1 (configuration not stated) = > 100 µM
CN(C)c1ccc(/C=C(\NC(=O)c2ccccc2)C(=O)Nc2ccccc2C(=O)NN2C(=O)CSC2c2ccc(N(C)C)cc2)cc1 (configuration not stated) = > 100 µM

Lab entry: MDA-N assay, compound Cc1cnc(Cl)nc1C(C#N)c1nc2ccccc2n1C (configuration not stated) , TGI = > 100 µM

Lab entry: MDA-N assay, compound Cc1ccc(Nc2nc(=O)[nH]c(=O)[nH]2)cc1N , TGI = > 100 µM

Lab entry: MDA-N assay, compound COc1ccc(N2C(=O)C3c4[nH]c5ccc(C)cc5c4C4CCC(C(C)C)CC4C3C2=O)cc1 (configuration not stated) , TGI = > 100 µM

Lab entry: MDA-N assay, compound CN1CCCC1c1cccnc1.O=C(O)c1ccccc1O.O=C([O-])c1ccccc1[OH2+].O=C([O-])c1ccccc1[OH2+].O=C([O-])c1ccccc1[OH2+].[Mn+2] (configuration not stated) , TGI = > 100 µM

====

test system: SNB-19 CNS; test: NCI tumour cell line growth inhibition, 48 h
Listing of entries alongside the reported TGI.

COc1ccc(CNc2nc(NCc3ccc(OC)cc3)nc(NC3CCCCC3)n2)cc1 = 5.96 µM

Lab entry: SNB-19 CNS assay, compound CCOC(=O)CCC1(C(=O)OC)CCCC1=O (stereo not given) , TGI = > 100 µM

Lab entry: SNB-19 CNS assay, compound CSc1c(C(C)=O)c(O)n(-c2ccc(Cl)cc2)c(=O)c1C#N , TGI = > 100 µM

Lab entry: SNB-19 CNS assay, compound Cc1ccc(S(=O)(=O)Nn2c(-c3ccccc3)c(C#N)c(-c3ccc([N+](=O)[O-])cc3)c(C#N)c2=O)cc1 , TGI = > 100 µM

====

tested on: MCF7 breast; assay: NCI tumour cell line growth inhibition, 48 h; in the data active = GI50 below about 0.43 µM; inactive = the rest
Form entry, call: pick from active, inactive

Solved cases (3 shown):
COC(=O)c1cc(Nc2ccc(O)c3c2C(=O)c2c([N+](=O)[O-])ccc(O)c2C3=O)cc(C(=O)OC)c1 = inactive
O=C1C=C(Nc2cccc(Br)c2)c2ccccc2C1=O = inactive
COc1ccccc1Cn1cc2c(c1)-c1oncc1CC2 = active

# input // return assay outcome for O=C1OC(c2ccc(O)cc2)(c2ccc(O)cc2)c2cccc3cccc1c23
# output inactive

# input // return assay outcome for CC(C)(C)n1cc(-c2ccnc(NCCNS(=O)(=O)c3ccc(Br)cc3)c2)c(-c2cccc(O)c2)n1
# output inactive

# input // return assay outcome for CCN(CC)CCOc1ccc(/C=C2\C[C@H]3[C@@H]4CC=C5C[C@@H](OC(C)=O)CC[C@]5(C)[C@H]4CC[C@]3(C)[C@H]2OC(C)=O)cc1OC
# output inactive

# input // return assay outcome for N#CC1c2ccccc2-c2ccccc2N1C(=O)c1ccccc1 (stereo not drawn)
# output inactive

# input // return assay outcome for CCN(CC)CCC(=O)Nc1ccc(Cn2nnc3c2C(=O)c2nnn(Cc4ccc(NC(=O)CCN(CC)CC)cc4)c2C3=O)cc1
# output active

# input // return assay outcome for CCOC(=O)c1[nH]c2c(c1C)-c1[nH]c(=O)c(S(=O)(=O)c3ccccc3)cc1SC2
# output inactive

# input // return assay outcome for O=C(/C=C/N1CCN(c2cccc(C(F)(F)F)c2)CC1)c1ccc(Cl)cc1Cl
# output inactive

# input // return assay outcome for CCCC/C(=N\N=C(N)N)c1ccc(F)cc1
# output inactive

# input // return assay outcome for COc1cc[nH]c1/C=C1\C(=O)Nc2ccc(F)c(C#CC3(O)CCOCC3)c21
# output inactive

# input // return assay outcome for CC1Cc2c(N(C)C)ncnc2N(C)c2ccc(Cl)cc21 (stereo not drawn)
# output inactive
